Details: 293.15 K, Ring tensiometer
MEASURE: surface tension liquid-gas (mN/m)
A number alone suffices; assume mN/m.

Output surface tension liquid-gas of CC1CCC(O)CC1 (centres undefined) 27.63

Output surface tension liquid-gas of CC1CCCC(O)C1 (stereo not drawn) [3-methyl-1-cyclohexanol, (cis+trans)] 27.82

Output surface tension liquid-gas of CC1CCCCC1O (centres undefined) 31.01

Output surface tension liquid-gas of OCCO 48.55

----------
Conditions: 303.15 K, Ring tensiometer
MEASURE: surface tension liquid-gas (mN/m)
A number alone suffices; assume mN/m.

Output surface tension liquid-gas of CC1CCCC(O)C1 (stereo not drawn) [3-methyl-1-cyclohexanol, (cis+trans)] 27.12

Output surface tension liquid-gas of CC1CCC(O)CC1 (centres undefined) 26.98

Output surface tension liquid-gas of OCCO 47.58

Output surface tension liquid-gas of CC1CCCCC1O (centres undefined) 30.19

----------
Details: 323.15 K, Ring tensiometer
Exercise: for every item that follows, state its recorded surface tension liquid-gas.
A number alone suffices; assume mN/m.

Output surface tension liquid-gas of OCCO [1,2-ethanediol] 45.99

Output surface tension liquid-gas of CC1CCCC(O)C1 (stereo not drawn) [3-methyl-1-cyclohexanol, (cis+trans)] 25.7

Output surface tension liquid-gas of CC1CCC(O)CC1 (centres undefined) [4-methylcyclohexanol] 25.63

Output surface tension liquid-gas of CC1CCCCC1O (centres undefined) [2-methylcyclohexanol] 28.57

----------
Conditions: 313.15 K, Ring tensiometer
MEASURE: surface tension liquid-gas (mN/m)
A number alone suffices; assume mN/m.

Output surface tension liquid-gas of CC1CCCCC1O (centres undefined) 29.37

Output surface tension liquid-gas of CC1CCC(O)CC1 (centres undefined) 26.31

Output surface tension liquid-gas of CC1CCCC(O)C1 (stereo not drawn) [3-methyl-1-cyclohexanol, (cis+trans)] 26.4

Output surface tension liquid-gas of OCCO 46.79

----------
Exercise: for every item that follows, state its recorded surface tension liquid-gas.
Details: 318.15 K, Ring tensiometer
± gives the expanded uncertainty stated by the source.
Give your result as the value with the unit written after it.

Output surface tension liquid-gas of CC1CCCC(O)C1 (stereo not drawn) [3-methyl-1-cyclohexanol, (cis+trans)] 26.06 ± 0.48 mN/m

Output surface tension liquid-gas of OCCO 46.29 ± 0.68 mN/m

Output surface tension liquid-gas of CC1CCC(O)CC1 (centres undefined) 25.96 ± 0.48 mN/m

Output surface tension liquid-gas of CC1CCCCC1O (centres undefined) 28.98 ± 0.53 mN/m

----------
Exercise: for every item that follows, state its recorded surface tension liquid-gas.
Conditions: 308.15 K, Ring tensiometer
A number alone suffices; assume mN/m.

Output surface tension liquid-gas of CC1CCCC(O)C1 (stereo not drawn) [3-methyl-1-cyclohexanol, (cis+trans)] 26.76

Output surface tension liquid-gas of OCCO 47.14

Output surface tension liquid-gas of CC1CCCCC1O (centres undefined) 29.81

Output surface tension liquid-gas of CC1CCC(O)CC1 (centres undefined) 26.61

----------
Details: 298.15 K, Ring tensiometer
Exercise: for every item that follows, state its recorded surface tension liquid-gas.
A number alone suffices; assume mN/m.

Output surface tension liquid-gas of CC1CCCCC1O (centres undefined) 30.57

Output surface tension liquid-gas of OCCO 48.11

Output surface tension liquid-gas of CC1CCCC(O)C1 (stereo not drawn) [3-methyl-1-cyclohexanol, (cis+trans)] 27.48

Output surface tension liquid-gas of CC1CCC(O)CC1 (centres undefined) 27.3

Where do these numbers come from? They come from the NIST ThermoML archive (doi:10.1021/je049919e).
